B1: POU domain, class 2, transcription factor 1, residues 285 to 354; numbered along this chain, P14859 (parent)
chain: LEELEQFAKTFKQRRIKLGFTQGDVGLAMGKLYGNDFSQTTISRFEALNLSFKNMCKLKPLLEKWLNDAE

Variants of: B1
Assay: abundance fitness (aPCA) (normalised: wild type 0, dead -1); higher = more abundant; growth selection in yeast, the domain comes from the species named
Conditions: Homo sapiens
Below, each of the variants is paired with its reported abundance fitness value.
Write the number on its own, no unit after it.

Worked cases, answers included:
VARIANT_KEY: D68T
ASSAY_VALUE: -0.048
--
VARIANT_KEY: F52W
ASSAY_VALUE: -0.002
--
VARIANT_KEY: E63A
ASSAY_VALUE: 0.07
--
VARIANT_KEY: S51I
ASSAY_VALUE: -0.801
--
VARIANT_KEY: K12A
ASSAY_VALUE: 0.006

The variant listed as N35G shows abundance fitness equal to 0.053

The reported abundance fitness of the variant Y33E was -0.047

Measured abundance fitness, Q22Y : -0.029

The reported value for L1D in terms of abundance fitness is -0.145
